Source listed as paper PMC10424183.

studySystem: CRBN/DDB1 complex (Homo sapiens, UniProt Q96SW2)
Construct: made in house
Sequence (Q96SW2 40-442 limits assumed, species assumed, one chain of several): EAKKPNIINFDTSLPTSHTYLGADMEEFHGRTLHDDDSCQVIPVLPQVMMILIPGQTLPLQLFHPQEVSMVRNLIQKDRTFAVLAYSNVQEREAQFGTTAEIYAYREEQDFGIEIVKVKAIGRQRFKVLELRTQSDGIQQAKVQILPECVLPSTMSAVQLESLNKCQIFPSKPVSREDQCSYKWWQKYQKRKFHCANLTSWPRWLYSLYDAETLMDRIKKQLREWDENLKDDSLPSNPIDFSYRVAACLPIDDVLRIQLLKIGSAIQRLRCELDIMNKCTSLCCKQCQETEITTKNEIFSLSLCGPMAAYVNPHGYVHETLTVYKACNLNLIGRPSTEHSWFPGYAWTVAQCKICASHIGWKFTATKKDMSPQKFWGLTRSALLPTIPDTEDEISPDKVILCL
testDetails: R2 values of fragment hits at two ligand concentrations (preliminary ranking)
Format: binding
assayConditions: 50 μM ligand, 2 μM CRBN/DDB1 complex
Lab note: compare average R2, compound at 50 μM with 4, writing criterion met if less and criterion not met if equal or more.

[[record]]
chemsmiles = "O=CN1CCN(Cc2c(F)cccc2Cl)CC1"
studysystem = "CRBN/DDB1 complex (Homo sapiens, UniProt Q96SW2)"
class = "criterion met"

[[record]]
chemsmiles = "CC(=O)Nc1cc2c(cc1C(=O)C(C)C)OCCO2"
studysystem = "CRBN/DDB1 complex (Homo sapiens, UniProt Q96SW2)"
class = "criterion met"

[[record]]
chemsmiles = "O=CN1CCN(Cc2cccc(Cl)c2)CC1"
studysystem = "CRBN/DDB1 complex (Homo sapiens, UniProt Q96SW2)"
class = "criterion met"

[[record]]
chemsmiles = "COC(=O)c1ccc2c(c1)NC(=O)CO2"
studysystem = "CRBN/DDB1 complex (Homo sapiens, UniProt Q96SW2)"
class = "criterion not met"

[[record]]
chemsmiles = "Cc1ccc(N2CC(=O)NC2=O)cc1"
studysystem = "CRBN/DDB1 complex (Homo sapiens, UniProt Q96SW2)"
class = "criterion not met"

[[record]]
chemsmiles = "N#CCCCN1C(=O)COc2ccc(Cl)cc21"
studysystem = "CRBN/DDB1 complex (Homo sapiens, UniProt Q96SW2)"
class = "criterion met"


* * *

studySystem: BCL6 BTB (Homo sapiens)
Construct: made in house
testDetails: R2KD ligand-observed 1H NMR assay (Kd from transverse relaxation rate R2)
Type: binding
assayConditions: R2KD assay, repeated three times (average); read-out: Kd
pKd: −log10 of the molar value.
Reported pKd values for a set of molecules
measuredAttribute: pKd

[[record]]
chemsmiles = "Cc1cc(Nc2ccc(F)cc2)n2ncnc2n1"
studysystem = "BCL6 BTB (Homo sapiens)"
reported = 2.98

[[record]]
chemsmiles = "CC[C@H](O)Cn1c(=O)n(C)c2ccc(Nc3ccnc(Cl)c3C#N)cc21"
studysystem = "BCL6 BTB (Homo sapiens)"
reported = 5.15

[[record]]
chemsmiles = "Cc1nccc(Nc2cnn(CCO)c2)c1C#N"
studysystem = "BCL6 BTB (Homo sapiens)"
reported = 4.29


* * *

studySystem: BCL6 BTB (Homo sapiens, UniProt P41182)
Construct: made in house
testDetails: R2KD ligand-observed 1H NMR assay (Kd from transverse relaxation rate R2)
Assay type: binding
assayConditions: ligand concentration increasing to 500 μM, no solubility limit; read-out: Kd, data set B
measuredAttribute: Kd (µM)

[[record]]
chemsmiles = "Cc1nccc(Nc2cnn(CCO)c2)c1C#N"
measurementunit = "µM"
reported = 68


* * *

studySystem: CRBN/DDB1 complex (Homo sapiens)
Construct: made in house
testDetails: R2 values of fragment hits at two ligand concentrations (preliminary ranking)
Assay type: binding
assayConditions: 50 μM ligand, 2 μM CRBN/DDB1 complex
Reported average R2, compound at 50 μM values for a set of compounds
measuredAttribute: average R2, compound at 50 μM

[[record]]
compound = "COc1ccc(C(=O)N2CCN(c3ccccn3)CC2)cc1"
measuredattribute = "average R2, compound at 50 μM"
reported = 1.5

[[record]]
compound = "CCOc1cccc(C2CC(=O)NC3=C2C(=O)CCC3)c1 (stereo not shown)"
measuredattribute = "average R2, compound at 50 μM"
reported = 1.6

[[record]]
compound = "CCOc1ccc(C2CNC(=O)C2)cc1 (stereo not shown)"
measuredattribute = "average R2, compound at 50 μM"
reported = 3.6

[[record]]
compound = "O=C(c1ccc(F)cc1)N1CCN(c2ccccc2)CC1"
measuredattribute = "average R2, compound at 50 μM"
reported = 1.6

[[record]]
compound = "CC(=O)N1CCN(S(=O)(=O)c2ccc(C(C)C)cc2)CC1"
measuredattribute = "average R2, compound at 50 μM"
reported = 1.2

[[record]]
compound = "CNC(=O)c1nc(-c2ccccc2)n(-c2ccccc2)n1"
measuredattribute = "average R2, compound at 50 μM"
reported = 1.5

[[record]]
compound = "COc1cc2c(cc1OC)C(c1cccc(O)c1)CC(=O)N2 (stereo not shown)"
measuredattribute = "average R2, compound at 50 μM"
reported = 2.5

[[record]]
compound = "N#CCCCn1c(=O)oc2ccc(Cl)cc21"
measuredattribute = "average R2, compound at 50 μM"
reported = 1.6

[[record]]
compound = "Nc1ccc(C(=O)NCC2COc3ccccc3O2)cc1 (stereo not shown)"
measuredattribute = "average R2, compound at 50 μM"
reported = 2

[[record]]
compound = "O=c1ccn(Cc2ccccc2)c(=O)[nH]1"
measuredattribute = "average R2, compound at 50 μM"
reported = 3.4

